Give GI50 for every item shown.
System: SKOV-3 human ovarian cancer cell line
assayProtocol: MTT cytostatic-cytotoxic activity, SKOV-3
Format: cell-based
conditions: Homo sapiens, SK-OV-3, SKOV-3, 48 h treatment
Method: SKOV-3 (SKOV-3) (ATCC HTB 77) and OVCAR-3 (ATCC® HTB-161™) Human ovarian adenocarcinoma cells, which are grown easily in monolayer culture with epithelial-like morphology. […] All cancer cell lines are stored in a liquid nitrogen tank in 2.5 ml cryovials (Corning-Costar, Cambridge, Mass.). […] Finally, the number of cells can be determined by direct counting using a Neubauer chamber and cell viability is determined by staining the cells with trypan blue. […]

Examples from the recorded data:
structureAsSmiles | GI50
COc1cc(Cc2nnc3sc(-c4ccccc4N)nn23)c(S(=O)(=O)N(C)C)cc1OC | > 100 µM
COc1cc(Cc2nnc3sc(/C=C/c4ccc(F)cc4)nn23)c(S(=O)(=O)N(C)C)cc1OC | 18 µM
COc1cc(Cc2nnc3sc(-c4ccc(Cl)cc4)nn23)c(S(=O)(=O)N(C)C)cc1OC | 8 µM

Field: next compound
Problem: Can you look up the measured GI50 of `COc1cc(Cc2nnc3sc(Cc4ccccc4)nn23)c(S(=O)(=O)N(C)C)cc1OC` for me?
Result: 12 µM
